Read-out: Keratin 19 (KRT19), KRT19 (gene 3880)
assay summary: LTEA_HepaRG_KRT19: Life Technologies and Expression Analysis (LTEA) Assay for Keratin 19 (KRT19) using HepaRG (AID 2283512)
cond: mRNA level, 48 h; actives raise or lower the signal
Calls of active or inactive are those of the source. Rule for the calls: active = hit-call score of the fitted dose curve at least 0.9, where 1 is the maximum; inactive = score below 0.9.
Respond with a class label; see y for active, n for inactive

• CCOc1cccc(-n2cc(C(=O)N3CCN(c4cc(C(=O)O)c5ccccc5c4)CC3)nc2-c2ccc(C)cc2)c1 = y
• O=C1OC(=O)C2C3C=CC(C3)C12 (stereo unspecified) = n
• Cc1ccc(O)cc1 = n

How was COCCOc1cc2cc(C(=O)NC3CCN(C(C)C)CC3)n(CC(=O)Nc3ccc(Cl)cn3)c2cn1 classified in this test?
y

Outcome? C=CC(=C)CCC=C(C)C
n

Tell me the assay call for CNS(=O)(=O)c1cc(C(=O)N2CCC(CCN3C4CCC3CC(n3c(C)nc5ccccc53)C4)(c3cccc(F)c3)CC2)c(Cl)cc1F (stereo unspecified) please.
y

----------
Read-out: JUN Transcription Factor, JUN (gene 3725)
assay summary: LTEA_HepaRG_JUN: Life Technologies and Expression Analysis (LTEA) Assay for JUN Transcription Factor using HepaRG (AID 2283513)
cond: mRNA level, 48 h; actives raise or lower the signal
Calls of active or inactive are those of the source. Rule for the calls: active = hit-call score of the fitted dose curve at least 0.9, where 1 is the maximum; inactive = score below 0.9.
Answer with one of the outcomes given here: 1 (yes) for active, 0 (no) for inactive

Assay outcome for Clc1nc(Cl)c(Cl)c(Cl)c1Cl : what was it?
0 (no)

What was the test verdict on CC(C)c1cccc(C(C)C)c1N1C(=O)c2ccc(O)cc2C1=O ?
0 (no)

----------
Read-out: serum amyloid A (SAA), SAA1 (gene 6288)
assay summary: BSK_CASM3C_SAA: BioMAP Diversity Plus: CASM3C Assay for serum amyloid A (SAA) Biomarker Activity (AID 2283049);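 note: SAA protein level quantified by ELISA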
cond: primary human coronary artery smooth muscle cells; actives raise or lower the signal
Calls of active or inactive are those of the source. The calls were made as follows: active = hit-call score of the fitted dose curve at least 0.9, where 1 is the maximum; inactive = score below 0.9.
assay metric: outcome

# annotated cases, reported outcome shown
* CC1(C)C(=O)N(Br)C(=O)N1Br | inactive
* CC[C@H]1CC[C@H](NCc2cc3c(cc2OC)[C@H]2C[C@H]2C(=O)N3C)[C@H](c2ccccc2)N1 | inactive
* CC(=O)c1ccc2c(c1)[C@H](NC(=O)c1ccc(F)cc1)[C@@H](O)C(C)(C)O2 | inactive
* O=C1OC(=O)C2C3C=CC(C3)C12 (configuration not stated) | inactive
* CC1=CC(=O)CC(C)(C)C1 | inactive

Looking for the measured outcome of CCCC(=O)OCC , can you help?
inactive

Query (compound): O=c1n(CC2CO2)c(=O)n(CC2CO2)c(=O)n1CC1CO1 (configuration not stated) ; field requested: outcome
inactive

Which value of outcome has been reported for Nc1cccc(N)c1 in the records?
inactive

Quick one: outcome of CC(C)CC(C)(O)C#CC(C)(O)CC(C)C (configuration not stated) ?
inactive

Tell me the measured outcome of Cc1ccc(O)cc1 , please.
inactive

Name the reported outcome value associated with the compound C=CCCCCCCCCC(=O)O
inactive

----------
Read-out: Interferon-gamma inducible Protein 10 (IP10), CXCL10 (gene 3627)
assay summary: BSK_hDFCGF_IP10: BioMAP Diversity Plus: hDFCGF Assay for Interferon-gamma inducible Protein 10 (IP10) Biomarker Activity (AID 2283053)
cond: primary human foreskin fibroblasts; actives raise or lower the signal
The source made the active and inactive calls. How the source made its calls: active means hit-call score of the fitted dose curve at least 0.9, where 1 is the maximum; inactive means score below 0.9.
Hi there, use one of these labels in your reply, thanks! active, inactive

- CCC(C)(C)C(=O)O[C@H]1C[C@@H](C)C=C2C=C[C@H](C)[C@H](CC[C@@H]3C[C@@H](O)CC(=O)O3)[C@H]21: active
- Nc1cccc(N)c1: inactive
- CCCCC(CC)COC(=O)CCCCCCCCC(=O)OCC(CC)CCCC (stereo not given): active
- O=C(O)c1cc(N=Nc2ccc(S(=O)(=O)Nc3ccccn3)cc2)ccc1O: inactive

Let us examine a further case.
Hello, I am checking results. What call was entered for O=c1n(CC2CO2)c(=O)n(CC2CO2)c(=O)n1CC1CO1 (stereo not given) ?
inactive

----------
assay summary: BSK_CASM3C_Proliferation: Cell Proliferation Assessment in the BioMAP Diversity Plus: CASM3C Assay (AID 2283047);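 note: sulforhodamine B total protein stain as relative cell number at 560 nm; sub-confluent cells exposed 48 h before staining; fitted both ways against DMSO so gain or loss of cell number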
cond: primary human coronary artery smooth muscle cells
The source made the active and inactive calls. Rule for the calls: active = hit-call score of the fitted dose curve at least 0.9, where 1 is the maximum; inactive = score below 0.9.
Hi there, use one of these labels in your reply, thanks! True = active, False = inactive

Examples from the recorded data:
- O=C(CCCCCCCCc1cccnc1)N1CCC(C=C(c2ccccc2)c2ccccc2)CC1: True
- COCCOCCOCCOC: False
- Nc1cccc(N)c1: False
- CCOC(=O)CC(CC(=O)OCC)(OC(C)=O)C(=O)OCC: False
- CCC(C)(C)C(=O)O[C@H]1C[C@@H](C)C=C2C=C[C@H](C)[C@H](CC[C@@H]3C[C@@H](O)CC(=O)O3)[C@H]21: True

API: the following record is the query input.
Short answer needed: outcome of this test for CC(C)=CCC/C(C)=C\CO ?
False

----------
Read-out: Matrix Metallopeptidase 1 (MMP1), MMP1 (gene 4312)
assay summary: BSK_BE3C_MMP1: BioMAP Diversity Plus: BE3C Assay for Matrix Metallopeptidase 1 (MMP1) Biomarker Activity (AID 2283024)
cond: primary human bronchial epithelial cells; actives raise or lower the signal
Active and inactive are the calls of the source. Rule for the calls: active = hit-call score of the fitted dose curve at least 0.9, where 1 is the maximum; inactive = score below 0.9.
Write down the outcome that applies. Available outcomes: active, inactive

Study these solved cases before continuing.
• O=C(NS(=O)(=O)/C=C/c1ccccc1)c1ccc(F)cc1Cl = inactive
• O=C(O)c1cccc(Oc2ccccc2)c1 = inactive

# lookup: test call for CC1(C)C(=O)N(Br)C(=O)N1Br
inactive

----------
Read-out: Thrombomodulin, THBD (gene 7056)
assay summary: BSK_CASM3C_Thrombomodulin: BioMAP Diversity Plus: CASM3C Assay for Thrombomodulin Biomarker Activity (AID 2283051);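 note: thrombomodulin protein level measured by ELISA 24 h after dosing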
cond: primary human coronary artery smooth muscle cells; actives raise or lower the signal
Active and inactive are the calls of the source. Rule for the calls: active = hit-call score of the fitted dose curve at least 0.9, where 1 is the maximum; inactive = score below 0.9.
assay metric: AC50

* CCOCCO | inactive
* CC(C)=CCCC(C)CCO (centres undefined) | inactive
* COC(=O)c1c(Cl)c(Cl)c(C(=O)OC)c(Cl)c1Cl | inactive
* O=P(OC(CCl)CCl)(OC(CCl)CCl)OC(CCl)CCl | 15.7 µM (active)

----------
Read-out: CYP2E1 (gene 1571)
assay summary: LTEA_HepaRG_CYP2E1: Life Technologies and Expression Analysis (LTEA) Assay for CYP2E1 using HepaRG (AID 2283485)
cond: mRNA level, 48 h; actives raise or lower the signal
Activity calls are given as the source filed them. How the source made its calls: active means hit-call score of the fitted dose curve at least 0.9, where 1 is the maximum; inactive means score below 0.9.
Respond using exactly one of the listed classes: active, inactive

- Cc1ccc(C)c(O)c1: inactive
- CC(C)CC(C)(O)C#CC(C)(O)CC(C)C (stereo not drawn): active

Turning now to a further record.
Write down the call the test reported for this molecule. Item: O=c1n(CC2CO2)c(=O)n(CC2CO2)c(=O)n1CC1CO1 (stereo not drawn)
inactive

----------
Read-out: Bcl-2 (BID) gene, BID (gene 637)
assay summary: LTEA_HepaRG_BID: Life Technologies and Expression Analysis (LTEA) Assay for Bcl-2 (BID) gene using HepaRG (AID 2283476)
cond: mRNA level, 48 h; actives raise or lower the signal
The source made the active and inactive calls. How the source made its calls: active means hit-call score of the fitted dose curve at least 0.9, where 1 is the maximum; inactive means score below 0.9.
A correct response names exactly one class from active, inactive

Use these answered entries as a reference point.
- C1=CCCC=CCCC=CCC1: inactive
- Cn1c(=O)cc(Oc2ccc(F)cc2F)c2cnc(NCC(C)(C)O)nc21: inactive
- CCc1cc(SCc2sc(-c3ccc(C(F)(F)F)cc3)nc2CN2CCN(c3ccc(OC)cc3)CC2)ccc1OCC(=O)O: active

Answer briefly: the call reported for Cc1ccc(C)c(O)c1 in this assay.
inactive

Called result for O=C(O)c1cccc(Oc2ccccc2)c1
inactive

Hello, I am checking results. What call was entered for CCOC(=O)c1ccc(C2CCC(NC[C@H](O)COc3ccc(O)c(NS(C)(=O)=O)c3)CC2)cc1 (some centres undefined) ?
inactive

Hi, sorry to bother you, what did the test record for CCCCC(CC)COC(=O)c1ccc(C(=O)OCC(CC)CCCC)cc1 (centres undefined) ?
inactive

So what was the verdict on C[C@](N)(Cc1ccc(O)c(O)c1)C(=O)O in this test?
inactive

Identify the outcome logged in this assay for the compound shown: O=C(O)c1cc(N=Nc2ccc(S(=O)(=O)Nc3ccccn3)cc2)ccc1O
inactive

# outcome recorded in this test, key = NC(=O)NO
inactive

Dear colleague, could you share the recorded outcome for CCOC(=O)COc1ccc2c(c1)CC(NCC(O)c1cccc(Cl)c1)CC2 (centres undefined) when you have a moment?
inactive

Outcome? COc1ccc(-n2nc(C(F)F)cc2-c2ccc(S(C)=O)cc2)cc1 (centres undefined)
inactive

Please let me know the test result on file for CC[C@H]1OC(=O)[C@H](C)[C@@H](O[C@H]2C[C@@](C)(OC)[C@@H](O)[C@H](C)O2)[C@H](C)[C@@H](O[C@@H]2O[C@H](C)C[C@H](N(C)C)[C@H]2O)[C@](C)(O)C[C@@H](C)C(=O)[C@H](C)[C@@H](O)[C@]1(C)O .
inactive

Status in this test for CCNc1ccccc1 ?
inactive

Call for entry CCOC(=O)CC(CC(=O)OCC)(OC(C)=O)C(=O)OCC :
inactive

What call does the record list for CCN(C(=O)c1cc(C)cc(OC[C@H](C)Nc2ccncc2)c1)C(C)C ?
active

Name the outcome recorded for CCCCCCCCCCCCCCCO in the assay.
inactive

Any idea what this test logged for Cc1ccc(N)cc1O ?
inactive

Call for entry CCCCCCCCCCCCc1ccccc1 :
inactive
